# assayed_system: HLA B*4402 (Homo sapiens, UniProt P01889, A223V/A65T/A93T/A95T/D201E/D98Y/E176V/E187L/E204Q/E69K/G107R/H137Y/K202T/L105A/L119I/N104T/N87E/Q56L/Q94N/R106L/R155S/R180D/S101N/S121R/S35A/S48T/T118I/V36M/W191S/Y140D/Y91S)
# assay_details: HLA class I binding assay (cell-free competition, fluorescence polarization)
pIC50: −log10 of the molar value. Where a SMILES comes first, the peptide text is derived from it.
endpoint: pIC50

- CC[C@H](C)[C@H](NC(=O)[C@H](Cc1ccccc1)NC(=O)[C@H](CCC(=O)O)NC(=O)[C@@H](NC(=O)[C@H](CC(=O)O)NC(=O)[C@H](CCC(=O)O)NC(=O)[C@H](CC(N)=O)NC(=O)[C@H](CCC(=O)O)NC(=O)[C@@H](N)CCSC)C(C)C)C(=O)O (H-MENEDVEFI-OH): 4.43
- CC[C@H](C)[C@H](NC(=O)[C@H](CCC(=O)O)NC(=O)[C@H](CCC(=O)O)NC(=O)[C@@H](N)CC(N)=O)C(=O)N[C@H](C(=O)N[C@@H](CC(=O)O)C(=O)N[C@@H](CC(C)C)C(=O)N[C@@H](CC(C)C)C(=O)N[C@@H](CC(N)=O)C(=O)N[C@@H](CC(C)C)C(=O)O)[C@@H](C)CC (H-NEEIIDLLNL-OH): 3.36
